Each recorded value in this set is attributed to patent US20240158339A1.

- experiment summary: Hepatic microsome stability assay, human
- Type: in vitro ADME
- measurement conditions: liver microsomes, pH 7.4; human microsomes, 10 μM; read-out: Clearance Rate
- Description: Hepatic Microsome Assay. Hepatic microsomes stability assays were performed in accordance with known methods (Peddibhotla, et al. (2013) ACS Med. Chem. Lett. 4:846-851). Briefly, 3 μL of 25 μM compound solution in acetonitrile were incubated with 123 μL of mouse, human or rat liver microsomes (Xenotech, Kansas City, KS). […]
measure name: microsomal CLint at 10 μM (µL/min/mg)
Number in µL/min/mg, nothing else.

Tell me measured microsomal CLint at 10 μM for O=C(/C=C/c1ccc(O)c(O)c1)NCCc1ccc(O)cc1 [N-trans-caffeoyltyramine] please. 5.3
